System: H9
Test: Inhibitory concentration against HIV-1 replication in acutely infected H9 lymphocytes
Format: functional, cell-based
Conditions: Homo sapiens
Assign EC50 to each entry below.
Just so you know, I need the unit written after the number.

Worked set:
[[record]]
compound = "CC1(C)Oc2ccc3cc(CN)c(=O)oc3c2[C@@H](OC(=O)C23CCC(C)(C(=O)O2)C3(C)C)[C@H]1OC(=O)C12CCC(C)(C(=O)O1)C2(C)C (stereo partly specified)"
result = "390 nM"

[[record]]
compound = "CC1(C)Oc2ccc3cc(CBr)c(=O)oc3c2[C@@H](OC(=O)C23CCC(C)(C(=O)O2)C3(C)C)[C@H]1OC(=O)C12CCC(C)(C(=O)O1)C2(C)C (stereo partly specified)"
result = "85.4 nM"

[[record]]
compound = "CCN(CC)Cc1cc2ccc3c(c2oc1=O)[C@@H](OC(=O)C12CCC(C)(C(=O)O1)C2(C)C)[C@@H](OC(=O)C12CCC(C)(C(=O)O1)C2(C)C)C(C)(C)O3 (stereo partly specified)"
result = "690 nM"

[[record]]
compound = "CC1(C)Oc2ccc3cc(C(Br)Br)c(=O)oc3c2[C@@H](OC(=O)C23CCC(C)(C(=O)O2)C3(C)C)[C@H]1OC(=O)C12CCC(C)(C(=O)O1)C2(C)C (stereo partly specified)"
result = "0.119 nM"

[[record]]
compound = "CC(=O)OCc1cc2ccc3c(c2oc1=O)[C@@H](OC(=O)C12CCC(C)(C(=O)O1)C2(C)C)[C@@H](OC(=O)C12CCC(C)(C(=O)O1)C2(C)C)C(C)(C)O3 (stereo partly specified)"
result = "1.03 nM"


Proceed to the following item.
Task item: Give the measured EC50 for CC1(C)Oc2ccc3cc(CO)c(=O)oc3c2[C@@H](OC(=O)C23CCC(C)(C(=O)O2)C3(C)C)[C@H]1OC(=O)C12CCC(C)(C(=O)O1)C2(C)C (stereo partly specified)
Reply: 0.188 nM

---

Tested on: H9
Assay: Inhibitory concentration required to inhibit uninfected H9 cell growth by 50%
Format: functional, cell-based
Details: Homo sapiens
Assay metric: pIC50
Answers are plain numbers, as −log10 of the molar value.

Below is a list of molecules. For each, state its recorded pIC50.
1. CC1(C)Oc2ccc3cc(CN)c(=O)oc3c2[C@@H](OC(=O)C23CCC(C)(C(=O)O2)C3(C)C)[C@H]1OC(=O)C12CCC(C)(C(=O)O1)C2(C)C (stereo partly specified)
2. CCN(CC)Cc1cc2ccc3c(c2oc1=O)[C@@H](OC(=O)C12CCC(C)(C(=O)O1)C2(C)C)[C@@H](OC(=O)C12CCC(C)(C(=O)O1)C2(C)C)C(C)(C)O3 (stereo partly specified)
3. CC1(C)Oc2ccc3cc(C(Br)Br)c(=O)oc3c2[C@@H](OC(=O)C23CCC(C)(C(=O)O2)C3(C)C)[C@H]1OC(=O)C12CCC(C)(C(=O)O1)C2(C)C (stereo partly specified)
4. CC1(C)Oc2ccc3cc(CBr)c(=O)oc3c2[C@@H](OC(=O)C23CCC(C)(C(=O)O2)C3(C)C)[C@H]1OC(=O)C12CCC(C)(C(=O)O1)C2(C)C (stereo partly specified)
5. CC1(C)Oc2ccc3cc(CO)c(=O)oc3c2[C@@H](OC(=O)C23CCC(C)(C(=O)O2)C3(C)C)[C@H]1OC(=O)C12CCC(C)(C(=O)O1)C2(C)C (stereo partly specified)
6. CC(=O)OCc1cc2ccc3c(c2oc1=O)[C@@H](OC(=O)C12CCC(C)(C(=O)O1)C2(C)C)[C@@H](OC(=O)C12CCC(C)(C(=O)O1)C2(C)C)C(C)(C)O3 (stereo partly specified)

Reply:
[4.48, 4.37, 5.49, 5.47, 4.45, 5.48]

---

Assay: Therapeutic index (IC50/EC50) of compound was determined in acutely infected H9 cell
Format: cell-based
Conditions: human, acutely infected H9 cells; read-out: TI
Assign selectivity ratio to each entry below.
One number for each entry.

Below is a list of molecules. For each, state its recorded selectivity ratio.
1. CC1(C)Oc2ccc3cc(CO)c(=O)oc3c2[C@@H](OC(=O)C23CCC(C)(C(=O)O2)C3(C)C)[C@H]1OC(=O)C12CCC(C)(C(=O)O1)C2(C)C (stereo partly specified)
2. CC1(C)Oc2ccc3ccc(=O)oc3c2[C@@H](OC(=O)C23CCC(C)(C(=O)O2)C3(C)C)[C@H]1OC(=O)C12CCC(C)(C(=O)O1)C2(C)C (stereo partly specified)
3. CC1(C)Oc2ccc3cc(C(Br)Br)c(=O)oc3c2[C@@H](OC(=O)C23CCC(C)(C(=O)O2)C3(C)C)[C@H]1OC(=O)C12CCC(C)(C(=O)O1)C2(C)C (stereo partly specified)
4. CC(=O)OCc1cc2ccc3c(c2oc1=O)[C@@H](OC(=O)C12CCC(C)(C(=O)O1)C2(C)C)[C@@H](OC(=O)C12CCC(C)(C(=O)O1)C2(C)C)C(C)(C)O3 (stereo partly specified)
5. CC1(C)Oc2ccc3cc(CBr)c(=O)oc3c2[C@@H](OC(=O)C23CCC(C)(C(=O)O2)C3(C)C)[C@H]1OC(=O)C12CCC(C)(C(=O)O1)C2(C)C (stereo partly specified)
6. CCN(CC)Cc1cc2ccc3c(c2oc1=O)[C@@H](OC(=O)C12CCC(C)(C(=O)O1)C2(C)C)[C@@H](OC(=O)C12CCC(C)(C(=O)O1)C2(C)C)C(C)(C)O3 (stereo partly specified)

Reply:
1. 188000
2. 137000
3. 26900
4. 3240
5. 40
6. 62
